B1: POU domain, class 4, transcription factor 2, residues 256 to 327; numbered along this chain, Q12837 (parent)
chain: RDLEAFAERFKQRRIKLGVTQADVGSALANLKIPGVGSLSQSTICRFESLTLSHNNMIALKPILQAWLEEAE

variants of: B1; experiment: abundance fitness (aPCA) (normalised: wild type 0, dead -1); higher = more abundant; growth selection in yeast, the domain comes from the species named; conditions: Homo sapiens
I'd appreciate it if you could label each record using abundance fitness and these ranges: group A: < -0.3; group B: ≥ -0.3 and < -0.1; group C: ≥ -0.1

mutant.name: S26L
assigned.label: group C

mutant.name: E69C
assigned.label: group C

mutant.name: N30P
assigned.label: group B

mutant.name: L60A
assigned.label: group B

mutant.name: H54N
assigned.label: group B

mutant.name: L31G
assigned.label: group A

mutant.name: S42H
assigned.label: group C

mutant.name: L39C
assigned.label: group B

mutant.name: G35L
assigned.label: group A

mutant.name: N56S
assigned.label: group C

mutant.name: S26V
assigned.label: group B

mutant.name: L28I
assigned.label: group C

mutant.name: S38V
assigned.label: group B

mutant.name: T51P
assigned.label: group A

mutant.name: I44C
assigned.label: group A

mutant.name: A59E
assigned.label: group B

mutant.name: I58H
assigned.label: group B

mutant.name: A66M
assigned.label: group B

mutant.name: L39K
assigned.label: group B

mutant.name: S26T
assigned.label: group C

mutant.name: E69G
assigned.label: group B

mutant.name: P62E
assigned.label: group A

mutant.name: I63K
assigned.label: group A

mutant.name: V24S
assigned.label: group A

mutant.name: Q21I
assigned.label: group C

mutant.name: E70D
assigned.label: group B

mutant.name: L28Y
assigned.label: group A

mutant.name: L50H
assigned.label: group C

mutant.name: S42C
assigned.label: group A

mutant.name: L60N
assigned.label: group A

mutant.name: A59T
assigned.label: group C

mutant.name: K61E
assigned.label: group A

mutant.name: L52Q
assigned.label: group A

mutant.name: N30S
assigned.label: group C

mutant.name: M57P
assigned.label: group A

mutant.name: S40H
assigned.label: group B

mutant.name: D23C
assigned.label: group A

mutant.name: M57G
assigned.label: group A

mutant.name: A66C
assigned.label: group A

mutant.name: L52E
assigned.label: group A

mutant.name: Q21W
assigned.label: group B

mutant.name: I44F
assigned.label: group A

mutant.name: A27V
assigned.label: group B

mutant.name: A27S
assigned.label: group B
